Data origin, for the record: ChEMBL document CHEMBL1201862

system: Malme-3M; test: NCI tumour cell line growth inhibition, 48 h
The source made the active and inactive calls. Cut-off read from the data, not from the text of the source: active = GI50 up to about 1.1 µM and inactive = higher.
Your reply should match one of these outcome classes. active, inactive

How did this test come out for O=C(O)C1c2ccccc2C(C(=O)O)c2ccccc21 (configuration not stated) ?
inactive

// param item: "N=c1oc2cc(O)ccc2cc1C(=O)Nc1cccc2ccccc12" ; yields the recorded call
active

Answer briefly: the call reported for COc1cccc(C2SC(=N)Nc3c2c(C)nn3C(=O)c2ccccc2O)c1 (configuration not stated) in this assay.
active

What did the test return for COC(=O)C1=Cc2cc(OC)c(OC)c(OC)c2[C@H](c2cc(OC)c(OC)c(OC)c2)C1C(=O)OC (some centres not stated) ?
inactive

Assay result, entry "Cc1cc2nc(O)c(CCC(=O)O)nc2cc1C" — outcome?
inactive

What did the test return for "CCOC(=O)c1c2ccccc2n2c(=O)n(-c3ccc(OC)cc3)nnc12" ?
inactive

Each molecule tested received a call. Report the one for "COC(=O)c1cc(/C=C/C(=O)Cc2ccccc2)cn1S(=O)(=O)c1ccccc1" .
inactive

----------
test system: HCT-15
# label = Condition met if GI50 < 30 µM else Condition not met

# strict comparison: is reported GI50 < 30 µM? input = "CC1(C)C=Cc2c(cc3oc4ccc5c(c4c(=O)c3c2O)C=CC(C)(C)O5)O1"
Condition not met

Lab note: GI50 threshold 30 µM. Does this compound come in strictly under it? "Cc1ccc(-n2c(O)c(C#N)c3[nH]nc(N)c3c2=O)cc1"
Condition not met

Does the reported GI50 of the following compound sit strictly below 30 µM? "Nc1nc(Cl)cc(NC2(CO)CCC2)n1"
Condition not met

# strict comparison: is reported GI50 < 30 µM? input = O=S1OC2(c3ccccc3-c3ccccc32)c2ccccc21 (centres undefined)
Condition not met

Bench note: check whether OC1(c2ccccc2)C2CC=CC2C1(c1ccccc1)c1ccccc1 (centres undefined) shows GI50 below 30 µM
Condition met

Lab note: GI50 threshold 30 µM. Does this compound come in strictly under it? "CCc1nc(N)nc(N)c1-c1ccc(Cl)c(/N=N/N(C)C)c1"
Condition met

Does this compound meet the criterion GI50 < 30 µM? "CCN(CC)C(=S)N/N=C1\C(=O)Nc2ccccc21"
Condition met

Criterion: GI50 strictly below 30 µM. Is it met by "O=c1c2cc(Br)ccc2oc2nc3n(c(=O)c12)CCCS3" ?
Condition not met

Check if GI50 falls below 30 µM for "O=C1NC(Nc2ccccc2Cl)=N/C1=C\c1c(Cl)cccc1Cl" .
Condition met

Is it true that GI50 reported for "CCOC(=O)c1c2ccccc2n2c(=O)n(-c3ccc(OC)cc3)nnc12" is less than 30 µM?
Condition not met

API: query returns whether the compound falls strictly under 30 µM in GI50. Query: "Cc1ccc(C)c(/C(=N\N=C(N)N)C2CC2)c1"
Condition not met

Lab note: confirm whether the reported GI50 for this compound is below 30 µM, equality not counting. compound: C1CN(P2(N3CC3)=NP(N3CC3)(N3CC3)=NP(N3CC3)(N3CC3)=N2)CCO1 (centres undefined)
Condition not met

Hi there! Is GI50 for "S=c1nc(N2CCCCC2)c2cn[nH]c2[nH]1" below 30 µM, do you know?
Condition not met

Given CC1=CC2CC(C)C1(C)CCc1ccoc12 (centres undefined) , is recorded GI50 strictly lower than 30 µM?
Condition not met

Given the entry C1=C(c2ccccc2)SC(N2CCCCC2)S1 (centres undefined) , would its reported GI50 be below 30 µM?
Condition not met

API: query returns whether the compound falls strictly under 30 µM in GI50. Query: "O=c1[nH]c(=O)n([C@H]2CCCO2)cc1F"
Condition not met

State whether 30 µM exceeds GI50 recorded for "Nc1nc(N)c2cc(-c3cc4ccccc4[nH]3)ccc2n1" .
Condition met

Determine whether this compound shows GI50 lower than 30 µM (ties excluded): O=C1CC2=CCCC2O1 (centres undefined)
Condition not met

State whether 30 µM exceeds GI50 recorded for "Clc1cc(Cl)ncn1" .
Condition not met
